// reported pKd for each item listed
study.system: T1, PHD1 finger of KDM5B (residues 306-360) (UniProt Q9UGL1 306-360)
T1 construct: 15N- or 13C/15N-labelled (M9 medium) for the NMR experiments; GST removed with 3C protease; also called PHD1_(KDM5B); PHD_(KDM5B); source: recombinant from modified pGEX-6p-1, purified; preparation described in Guo et al., 2011; not shown: GST, N-terminal, cleaved
T1 sequence (looked up): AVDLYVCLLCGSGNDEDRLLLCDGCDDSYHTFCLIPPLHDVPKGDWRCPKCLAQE
assay.comment: ITC; ITC-200, 20 mmol/L Tris, 150 mmol/L NaCl, 1% Triton X-100, pH 7.5, 25°C
measurement.setup: both partners purified
Value format note: pKd is -log10 of concentration (mol/L); just state the number.

ARTKQTARKS (trimethyl-lysine at K4, histone H3 N-terminal tail, residues 1-10; source: synthetic peptide, bought: GL Biochem Ltd. (Shanghai, China)) [tri-methylated H3K4me3 peptide (residues 1-10)]: 3.98

The record that follows has no pKd shown yet.
GET /value?item= ARTKQTARKS (histone H3 N-terminal tail, residues 1-10; also called H3K4me0; H3K4me0 peptide; source: synthetic peptide, bought: GL Biochem Ltd. (Shanghai, China)) [unmodified H3K4 peptide (residues 1-10)] &field=pKd returns 5.19
